# Test system: HGC27
# protocol-summary: CellTiter-Blue cell-based survival/proliferation assay, HGC27
# applied-conditions: Homo sapiens, HGC-27; HGC27 stomach tumor cell line, 48 h
pIC50: −log10 of the molar value.
measurement-kind: pIC50

Here are 2 molecules together with their reported answers.
> print(dat)
                            chemical.smiles  experimental.result
1  CCOCc1ccc(C)c(Nc2ncc(-c3ccc(-n4cccn4)cc3)o2)c1               ≥ 7.00
2  Cc1ccc(C(=O)NCCN2CCN(C)CC2)cc1Nc1ncc(-c2ccc(-n3cccn3)cc2)o1               < 6.00

Form field: reported pIC50 of `CCOCc1cccc(Nc2ncc(-c3ccc(-n4cccn4)cc3)o2)c1`
< 6.00

====

Quick reference for pIC50 among some molecules
# Test system: PC3
# protocol-summary: CellTiter-Blue cell-based survival/proliferation assay, PC3
# applied-conditions: Homo sapiens, PC-3; PC3 prostate tumor cell line, 48 h
pIC50: −log10 of the molar value.

> print(dat)
                            chemical.smiles  assay.target  experimental.result
1  CCOCc1ccc(C)c(Nc2ncc(-c3ccc(-c4ccc[nH]c4=O)cc3)o2)c1           PC3               < 6.00
2  COc1ccc(C)c(Nc2ncc(-c3ccc(-n4cccn4)nc3)o2)c1           PC3               < 6.00
3  CCOCc1ccc(C)c(Nc2ncc(-c3ccc(-n4cc(C)cn4)cc3)o2)c1           PC3               < 6.00
4  CCOCc1ccc(C)c(Nc2ncc(-c3ccc(N4CCN(CCNC(C)=O)C4=O)cc3)o2)c1           PC3               < 6.00
5  CCOCc1ccc(C)c(Nc2ncc(-c3ccc(-n4ccc(C)n4)cc3)o2)c1           PC3               < 6.00
6  CCOCc1ccc(C)c(Nc2ncc(-c3ccc(N4C(=O)NC[C@H]4C)nc3)o2)c1           PC3               ≥ 7.00

Form field: reported pIC50 of `CCOCc1ccc(C)c(Nc2nc(-c3ccc(N4CCNC4=O)cc3)cs2)c1`
≥ 7.00

Form field: reported pIC50 of `CCOCc1cc(C)cc(Nc2ncc(-c3ccc(-n4cccn4)cc3)o2)c1`
6.00 to 6.30

====

Quick reference for IC50 among some compounds
# System: ACHN
# protocol-summary: CellTiter-Blue cell-based survival/proliferation assay, ACHN
# applied-conditions: Homo sapiens; ACHN kidney tumor cell line, 48 h

Here are 8 compounds together with their reported answers.
> print(dat)
                            chemical.smiles  measurement.kind  experimental.result
1  CCOCc1ccc(C)c(Nc2ncc(-c3ccc(N4CCN(CCN)C4=O)cc3)o2)c1              IC50            > 1000 nM
2  Cc1ccc(CO)cc1Nc1ncc(-c2ccc(-n3cccn3)cc2)o1              IC50            > 1000 nM
3  COc1ccc(C)c(Nc2ncc(-c3ccc(-n4cccn4)cc3)s2)c1              IC50            > 1000 nM
4  CCOCc1ccc(C)c(Nc2ncc(-c3ccc(-c4nccs4)cc3)o2)c1              IC50            > 1000 nM
5  COc1ccc(C)c(Nc2ncc(-c3ccc(-n4cccn4)nc3)o2)c1              IC50            > 1000 nM
6  CCOCc1ccc(C)c(Nc2ncc(-c3ccc(N4CCN(C)C4=O)cc3)o2)c1              IC50            > 1000 nM
7  CCOCc1ccc(C)c(Nc2ncc(-c3ccc(-n4cncn4)cc3)o2)c1              IC50            > 1000 nM
8  CCOCc1ccc(C)c(Nc2ncc(-c3ccc(-n4c(C)n[nH]c4=O)cc3)o2)c1              IC50            > 1000 nM

Continue with the compound presented below.
Form field: reported IC50 of `CCOCc1cc(COCC)cc(Nc2ncc(-c3ccc(-n4cccn4)cc3)o2)c1`
> 1000 nM
